# Experimental Target: T1, human APJ receptor (human, UniProt P35414 1-380)
# T1 sequence (looked up): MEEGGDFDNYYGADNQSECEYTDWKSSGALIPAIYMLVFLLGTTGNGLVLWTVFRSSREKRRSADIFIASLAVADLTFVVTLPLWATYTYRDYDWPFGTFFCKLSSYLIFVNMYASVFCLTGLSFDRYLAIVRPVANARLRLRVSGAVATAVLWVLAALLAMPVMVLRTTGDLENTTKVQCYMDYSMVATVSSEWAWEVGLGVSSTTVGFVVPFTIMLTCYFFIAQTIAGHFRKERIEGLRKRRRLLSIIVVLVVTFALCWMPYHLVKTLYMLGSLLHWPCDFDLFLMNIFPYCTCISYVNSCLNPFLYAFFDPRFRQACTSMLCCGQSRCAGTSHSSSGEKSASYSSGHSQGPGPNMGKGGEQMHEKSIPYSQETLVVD
# Measurement Notes: cell-based or functional assay
Starred links: 1 amine or outer side, 2 acyl side, 3 side chain; linkers in the order of their positions; H or OH if unused. Non-standard residues stand in square brackets, D forms with d. *: point of attachment. Oic = O=C(O)[C@@H]1C[C@@H]2CCCC[C@@H]2N1; Phe(4-Cl) = N[C@@H](Cc1ccc(Cl)cc1)C(=O)O; γGlu = O=C(O)[C@H](CCC(=O)[*:2])N[*:1]; NMeR = CN[C@@H](CCCNC(=N)N)C(=O)O; Palmitoyl = CCCCCCCCCCCCCCCC(=O)*; Tridecanoyl = CCCCCCCCCCCCC(=O)*; Cha = N[C@@H](CC1CCCCC1)C(=O)O; NMeL = CN[C@@H](CC(C)C)C(=O)O; αMeL = CC(C)C[C@](C)(N)C(=O)O; αMeP = C[C@@]1(C(=O)O)CCCN1; Nle = CCCC[C@H](N)C(=O)O; AEEA = NCCOCCOCC(=O)O; BLeu = β-leucine
Recorded Metric: EC50 Human APJ Receptor (nM)
Write the answer as a number in nM, unit excluded.

Measured EC50 Human APJ Receptor of Ac-RQRPR[NMeL]SHKGP[Nle]P[Phe(4-Cl)]-OH (SMILES CCCC[C@H](NC(=O)[C@@H]1CCCN1C(=O)CNC(=O)[C@H](CCCCN)NC(=O)[C@H](Cc1c[nH]cn1)NC(=O)[C@H](CO)NC(=O)[C@H](CC(C)C)N(C)C(=O)[C@H](CCCNC(=N)N)NC(=O)[C@@H]1CCCN1C(=O)[C@H](CCCNC(=N)N)NC(=O)[C@H](CCC(N)=O)NC(=O)[C@H](CCCNC(=N)N)NC(C)=O)C(=O)N1CCC[C@H]1C(=O)N[C@@H](Cc1ccc(Cl)cc1)C(=O)O) [SEQ ID NO: 64] : 0.0555

Measured EC50 Human APJ Receptor of Tridecanoyl-[γGlu][AEEA][AEEA][BLeu]RP[NMeR][αMeL]SHKG[Oic][Nle][αMeP][Phe(4-Cl)]-OH [SEQ ID NO: 388] : 0.706

Measured EC50 Human APJ Receptor of Palmitoyl-[γGlu][AEEA][AEEA][dQ]RP[NMeR][Cha]SHKG[Oic][Nle]P[dAMF]-OH [SEQ ID NO: 607] : 0.0956

src = patent US10941182
